TESTED_TARGET: Concanavalin-A (Canavalia ensiformis) (UniProt P02866)
Sequence (P02866 whole entry, looked up): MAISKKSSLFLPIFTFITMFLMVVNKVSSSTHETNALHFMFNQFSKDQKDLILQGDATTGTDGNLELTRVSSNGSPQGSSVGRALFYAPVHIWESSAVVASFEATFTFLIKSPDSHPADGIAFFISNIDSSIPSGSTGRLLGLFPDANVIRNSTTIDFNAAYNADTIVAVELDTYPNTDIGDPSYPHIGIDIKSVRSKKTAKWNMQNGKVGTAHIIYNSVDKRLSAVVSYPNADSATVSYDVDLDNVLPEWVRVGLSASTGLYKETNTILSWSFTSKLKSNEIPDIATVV
TEST_NAME: ConA small-molecule binders, primary screen, artefact control for SMM control protein annotation, biochemical, small-molecule microarray, Alexa647 label, 635 nm (AID 1127);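 note: z combines 667 nm emission intensity with signal-to-noise across three replicate slides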
EXPERIMENTAL_SETUP: ConA-A647 binding fluorescence, higher = more signal
Output Criterion met for composite z-score not less than 0.06; output Criterion not met otherwise.

O=C1N(CCS(=O)(=O)c2ccccc2)c2ccccc2[C@@H]2OC(c3ccc(OCCCO)cc3)=N[C@]12CCS(=O)(=O)c1ccccc1 ... Criterion met
CC(C)CNC(=O)[C@@H]1c2ccccc2C(=O)N(CC23CC4CC(CC(C4)C2)C3)[C@H]1c1ccc(CO)cc1 ... Criterion met
C=CCC(OC(C)=O)[C@@H]1[C@@H](N(Cc2ccc(-c3ccccc3)cc2)C(=O)c2ccc(C)cc2)c2cc(OCCCO)ccc2N1C(=O)c1ccc2ccccc2c1 (stereo not given in full) ... Criterion not met

stdin: In plain terms: is recorded composite z-score at least 0.06 for `CC(C)CNC(=O)[C@@H]1c2ccccc2C(=O)N(C(C)C)[C@H]1c1ccc(CO)cc1` ?
stdout: Criterion not met

stdin: Quick check: does `COC(=O)[C@@]1(Cc2ccc(OC)cc2)[C@@H]2[C@@H](CC(=O)[C@H]2CC(=O)C(=O)N2CCCC2)CN1C(=O)c1ccccc1` have composite z-score greater than or equal to 0.06?
stdout: Criterion met

stdin: Assess whether reported composite z-score for `CC#CCO[Si](C#CCCCCCC)(C(C)C)C(C)C` sits at 0.06 or higher.
stdout: Criterion not met

stdin: # bool: composite z-score of `COC(=O)[C@@]1(Cc2ccc(OC)cc2)[C@H]2c3cc(C(=O)N(C)C)n(Cc4ccsc4Br)c3C[C@H]2CN1C(=O)c1ccccc1` >= 0.06
stdout: Criterion met

stdin: Determine whether measured composite z-score meets or exceeds 0.06 for `CCCCC(=C=CC[C@@H](O)c1ccc(OCCO)cc1)C[C@@H](O)c1ccccn1`
stdout: Criterion met

* * *

TEST_NAME: small-molecule binders of probe aNOTCH3, primary screen, biochemical, small-molecule microarray, 635/667 nm fluorescence (AID 1120);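 note: probe is a biotin-tagged antibody raised against NOTCH3 rather than NOTCH3 protein; score merges spot fluorescence near 667 nm with spot signal to noise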
EXPERIMENTAL_SETUP: higher = more signal
Assignment: determine reported composite z-score for the given compounds.
One number for each entry.

Check out these entries, answers already filled in.
CC(C)C[C@@H]1NC(=O)[C@H]2C[C@@H](C(=O)NCCCCCCNC(=O)CS)[C@@H](c3ccc(O)cc3)N2C1=O ... -0.0581
COCCOC(=O)N1C(=O)[C@@]2(c3cc(C#CC4=CCCCC4)ccc31)[C@H](C(=O)N1CCc3cc(OC)c(OC)cc3C1)[C@H]1C(=O)O[C@H](c3ccccc3)[C@H](c3ccccc3)N1[C@@H]2c1ccc(O)cc1 ... 0.285
COCCOC(=O)N1C(=O)[C@@]2(c3cc(C#CCC(C(=O)OC)C(=O)OC)ccc31)[C@H](c1ccc(OCCO)cc1)N1[C@H](c3ccccc3)[C@H](c3ccccc3)OC(=O)[C@H]1[C@@H]2C(=O)N1CCCCCCC1 ... 1.77

Would you be so kind as to report composite z-score for each listed record?
1. COc1ccc(CCNC(=O)[C@@H]2c3ccccc3C(=O)N(CC34CC5CC(CC(C5)C3)C4)[C@H]2c2ccc(CO)cc2)cc1
2. O=C1OCCC/C=C\[C@H]2OC34C=CCN(Cc5ccccc5)C(=O)[C@H]3N(CCCCCO)C(=O)[C@@H]4C12 (some centres undefined)
3. COCCOC(=O)N1C(=O)[C@@]2(c3cc(C#Cc4ccc(OC)cc4)ccc31)[C@H](C(=O)N1CCCCCCC1)[C@H]1C(=O)O[C@H](c3ccccc3)[C@H](c3ccccc3)N1[C@@H]2c1ccccc1OCCO
4. C[N+](C)(C)CCCC[C@@H]1NC(=O)[C@H]2C[C@@H](C(=O)NCCCCCNC(=O)CS)[C@@H](c3ccc(O)cc3)N2C1=O

stdout:
0.0206
-0.366
1.49
-0.154

* * *

TESTED_TARGET: Streptavidin (Streptomyces avidinii)
TEST_NAME: streptavidin binders on small-molecule microarray, primary screen, artefact control for SMM compound annotation, biophysical, 635/667 nm fluorescence (AID 1147);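 note: signal reflects streptavidin binding to arrayed compounds as a control protein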
EXPERIMENTAL_SETUP: streptavidin binding, higher = more signal
Categories are defined by ranges of composite z-score, namely bucket A = under 0.1, bucket B = from 0.1 up to 0.7, bucket C = 0.7 and over

Study these solved cases before continuing.
C=CCNC(=O)[C@H]1[C@@H]2C(=O)O[C@@H](c3ccccc3)[C@@H](c3ccccc3)N2[C@@H](c2ccccc2OCCO)[C@]12C(=O)N(C(=O)OCCOC)c1ccccc12 ... bucket B
C=CCNC(=O)[C@H]1[C@@H]2C(=O)O[C@@H](c3ccccc3)[C@@H](c3ccccc3)N2[C@@H](c2ccc(O)cc2)[C@]12C(=O)Nc1ccc(C#CC3=CCCCC3)cc12 ... bucket C
CC(C)C(=C=CC[C@@H](O)c1ccc(OCCO)cc1)CCO ... bucket A
CCOC(=O)C[C@H]1[C@H](OC(=O)c2ccc(-c3ccccc3)cc2)[C@@H](NC(=O)c2ccc3ccccc3c2)c2cc(OCCCO)ccc2N1C(=O)c1ccccc1 ... bucket B
CC(C)[C@@H](C(=O)O)n1cc(-c2ccccc2)nn1 ... bucket C

stdin: Band assignment needed for `COCCOC(=O)N1C(=O)[C@@]2(c3cc(C#CCCO)ccc31)[C@H](C(=O)N1CCN(c3ncccn3)CC1)[C@H]1C(=O)O[C@H](c3ccccc3)[C@H](c3ccccc3)N1[C@@H]2c1ccc(O)cc1` please.
stdout: bucket A

stdin: Bin this entry: `Cc1ccc(S[C@]2(C(=O)NCC(F)(F)F)CC(=O)N(C3CCCCC3)[C@@H]2c2ccc(CO)cc2)cc1`
stdout: bucket A

stdin: Note: place this compound into its band. Item: `CCOC(=O)C[C@H]1[C@H](OC(=O)Cc2ccc3c(c2)OCO3)[C@@H](NC(=O)c2ccccc2)c2cc(OCCCO)ccc2N1C(=O)Cc1ccc(OC)cc1`
stdout: bucket B

stdin: Which composite z-score band matches `C=C(COC)C(=O)CC[C@@H](OC(=O)c1cccnc1)c1cccc(OCCO)c1` ?
stdout: bucket A

stdin: Band for CC(C)c1ccc(NN2C(C(O)C(C)C)C=CC3C(=O)N(c4ccccc4)C(=O)C32)cc1 (stereo not given) ?
stdout: bucket C

stdin: Classify this compound: `CCOC(=O)C[C@H]1[C@H](OC(=O)c2ccc(C(=O)c3ccccc3)cc2)[C@@H](NC(=O)c2ccc3ccccc3c2)c2cc(OCCCO)ccc2N1C(=O)c1ccc2ccccc2n1`
stdout: bucket B

stdin: Hey, which category is `CN(C)CCCNC(=O)[C@@H]1c2ccccc2C(=O)N(C2Cc3ccccc3C2)[C@H]1c1ccc(CO)cc1` in, do you know?
stdout: bucket B

* * *

TESTED_TARGET: Homeobox protein Hox-A13 (Mus musculus) (UniProt Q62424)
Sequence (Q62424 whole entry, looked up): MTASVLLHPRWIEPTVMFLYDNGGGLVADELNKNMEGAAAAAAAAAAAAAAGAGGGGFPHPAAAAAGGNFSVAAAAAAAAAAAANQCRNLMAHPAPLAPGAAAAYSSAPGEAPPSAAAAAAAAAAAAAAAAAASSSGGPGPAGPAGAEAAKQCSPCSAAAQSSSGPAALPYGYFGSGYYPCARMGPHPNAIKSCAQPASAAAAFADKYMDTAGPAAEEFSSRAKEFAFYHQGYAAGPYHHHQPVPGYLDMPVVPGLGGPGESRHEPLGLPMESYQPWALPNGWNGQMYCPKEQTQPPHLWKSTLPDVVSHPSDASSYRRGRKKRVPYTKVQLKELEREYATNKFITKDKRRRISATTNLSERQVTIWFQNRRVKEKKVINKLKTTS
TEST_NAME: inhibitors of HoxA13-DNA binding, primary screen, biochemical, fluorescence polarization, labeled oligonucleotide (AID 1185)
EXPERIMENTAL_SETUP: 15 min, called active from +8 up or from −8 down
Activity calls are given as the source filed them.
Thanks in advance; please answer with one of these: active, inactive

Take a look at these entries with their results.
O=C1OCCC=C[C@H]2OC34C=CCN(CCN5CCOCC5)C(=O)[C@H]3N(CCCO)C(=O)[C@@H]4C12 (some centres undefined) ... inactive
[N-]=[N+]=NCc1ccccc1C[C@]1(C(=O)NCc2ccccc2)N=C(c2ccc(OCCCO)cc2)O[C@H]1c1ccccc1CN=[N+]=[N-] ... inactive
COC(=O)C1=CC(CCCO)=CC(c2ccc(CN3CCCC3)cc2)N(Cc2sc3ccccc3c2Cl)C=C1C(=O)OC (centres undefined) ... inactive
C=CCOC(=O)[C@@H]1[C@H]2C(=O)O[C@H](c3ccccc3)[C@H](c3ccccc3)N2[C@H](c2ccc(OCCOC(=O)[C@H]3C[C@H]4C(=O)NCC(=O)N4[C@H]3c3ccc(O)cc3)cc2)[C@@]12C(=O)Nc1ccc(I)cc12 ... inactive

stdin: Outcome? `C=C(COC)C(=O)CC[C@@H](OC(=O)c1cccnc1)c1cccc(OCCO)c1`
stdout: inactive

stdin: For this molecule, state the assay outcome: COC(=O)C1=CC(CCCO)=CC(C2CC2)N(Cc2cccc(OC(F)(F)F)c2)C=C1C(=O)OC (centres undefined)
stdout: inactive

stdin: Look up the recorded call for CC(C)C[C@H]1NC(=O)[C@@]23C(=O)N[C@@H](Cc4ccccc4)C2[C@H](C)[C@@]2(C)O[C@H]2C3/C=C/C/C=C\CNC(=O)[C@@H]2CCCN2C1=O (some centres undefined) in this test.
stdout: inactive

stdin: Please state the recorded outcome for this molecule: `CO[C@H]1O[C@H](CO)[C@@H](OC(=O)Nc2ccc3c(c2)OCO3)[C@@H]2OC(=O)[C@@H](Cc3ccccc3)C/C=C/C[C@H](Cc3ccccc3)C(=O)O[C@@H]12`
stdout: active

stdin: # outcome recorded in this test, key = O=C1OCCC=C[C@H]2OC34C=CCN(c5ccc(Cl)cc5)C(=O)[C@H]3N(CCO)C(=O)[C@@H]4C12 (some centres undefined)
stdout: inactive

stdin: In this assay, the call recorded for COc1cc2c(cc1O)C(C1CC1)N(Cc1ccc([N+](=O)[O-])o1)CC2 (centres undefined) was what?
stdout: inactive

stdin: Tell me the recorded outcome of this test for `C=CCNC(=O)[C@H]1[C@@H]2C(=O)O[C@@H](c3ccccc3)[C@@H](c3ccccc3)N2[C@@H](c2ccc(O)cc2)[C@]12C(=O)Nc1ccc(C#CC3=CCCCC3)cc12` .
stdout: inactive

stdin: Given O=C1C2C=CC(C(O)c3ccc([N+](=O)[O-])cc3)N(Nc3ccccc3)C2C(=O)N1c1ccccc1 (centres undefined) , state the outcome it received in this test.
stdout: inactive

stdin: Assay outcome for CC(=O)c1ccc(C(O)C2C=CC3C(=O)NC(=O)C3N2Nc2ccc(Cl)cc2Cl)cc1 (centres undefined) : what was it?
stdout: inactive

stdin: # outcome recorded in this test, key = `COc1ccc([Si](C)(C)[C@H]2[C@H](CCO)O[C@@]3(C(=O)N(Cc4ccc(N5CCOC5=O)cc4)c4ccccc43)[C@@H]2C)cc1`
stdout: inactive
